- System: 786-0 renal
- MEASUREMENT PROTOCOL: NCI tumour cell line growth inhibition, 48 h
Where TGI equals or exceeds 10 µM, the correct label is fulfilled; where it does not, the label is not fulfilled.

Recorded results for 5 compounds are shown here.
| COMPOUND | CLASS NAME |
| --- | --- |
| C[C@@H](CC(O)C1OC1(C)C)[C@@H]1CC[C@]2(C)C3=CCC4C(C)(C)C(O)CC[C@]4(C)C3CCC12C (some centres not stated) | fulfilled |
| Nc1nc(/C=C\c2ccc([N+](=O)[O-])s2)nc(N2CCOCC2)n1 | fulfilled |
| COC(=O)C1=C(C(=O)OC)SC(=C(Cl)C(=S)Oc2ccccc2N)S1 | fulfilled |
| CCOC(=O)C1(C)CCCc2sc(N)c(C#N)c21 (configuration not stated) | fulfilled |
| OC1c2[nH]c3ccccc3c2CCN2CCCCC12 (configuration not stated) | fulfilled |

Query :: Given `Cc1ccc(-c2nc3cc(N4CCN(C)CC4)c(F)cc3[nH]2)cc1` , state whether its TGI is at least 10 µM.
Result :: fulfilled

Query :: Determine whether this compound has TGI no lower than 10 µM: `O=C1OCC(C#Cc2ccccc2)=C1Br`
Result :: fulfilled

Query :: Textbook exercise: given the entry `C/C(=N\[N+](C)(C)C)c1ccc(C)c(C)c1` , state whether its TGI is greater than or equal to 10 µM.
Result :: fulfilled

Query :: I'd appreciate it if you could say whether COC(=O)C1=C(O)C(C(=O)OC)[C@]2(O)[C@@H](C(=O)OC)[C@H]1[C@H](C)[C@@H](c1ccccc1)[C@@H]2C(=O)OC (some centres not stated) has TGI at least equal to 10 µM.
Result :: fulfilled

Query :: Decide: is the reported value of TGI for `O=S(=O)(SCCCCSS(=O)(=O)c1ccc(Cl)cc1)c1ccc(Cl)cc1` equal to or greater than 10 µM?
Result :: fulfilled

Query :: Quick check, TGI >= 10 µM? `CCOC(=O)CCSS(=O)(=O)c1ccccc1`
Result :: fulfilled
